Reference source for all entries: patent US20210228825A1

Protocol notes: Pharmacokinetics analysis in human clinical trial FLE-001, inhalation versus intravenous flecainide, venous plasma
Format: in vivo
Cond: inhaled, healthy adult volunteers, inhalation of flecainide acetate solution, 30 mg eTLD, read-out: Peak plasma concentration of flecainide (Cmax)
Protocol: This example describes pharmacokinetics (PK) analysis performed during a human clinical trial (FLE-001) in which inhalation administration of flecainide was tested for safety and compared against intravenous administration of flecainide. This was an open label non-randomized crossover in a cohort of 6 evaluable healthy adult volunteers. This part of the study consisted of two periods with each subject receiving a total of 2 doses of flecainide, one dose in each period. […]
Measure: Cmax (ng/mL)
Report only the number, with the unit ng/mL understood.

Inquiry: Tell me the measured Cmax of O=C(NCC1CCCCN1)c1cc(OCC(F)(F)F)ccc1OCC(F)(F)F (stereo not shown) [flecainide] , please.
Reply text: 120
